Where do these numbers come from? They come from PubChem BioAssay AID651820.

METHOD_SUMMARY: qHTS Assay for Inhibitors of Hepatitis C Virus (HCV)
SETUP_CONDITIONS: Huh7.5.1 HCVcc-Cre infection, luciferase reporter, 44 h; series mostly up to 41.8 µM
The campaign covered roughly 340,000 compounds. About 12,000 (3.5%) were called active. Not shown: some 18% with an inconclusive outcome. Calls follow the shape of the dose curve; as a rule, active = well fitted inhibition curve with a large enough effect; inconclusive = small, poorly fitted or top-dose-only effect, or another doubt; inactive = no such curve, though single readings can be large or run the other way. The list comes from a sample in which actives are over-represented; it also holds close analogues and randomly drawn compounds.
Hi! Could you answer with just one of these? active, inactive

A selection of reference data follows.
{"COMPOUND": "COc1ccc2[nH]c3c(=O)n(Cc4ccco4)cnc3c2c1", "CLASSIFICATION": "inactive"}
{"COMPOUND": "CC(=O)NC(CC(=O)Nc1ccc(S(=O)(=O)N2CCOCC2)cc1)c1ccccc1 (configuration not stated)", "CLASSIFICATION": "inactive"}

Inquiry: Recorded call for CN(C(=O)Cn1nnc(-c2ccc(F)cc2)n1)C1CCS(=O)(=O)C1 (configuration not stated) ?
Reply text: inactive

Inquiry: Outcome? Cc1ccc(-n2ncc3c2ncn2nc(-c4ccco4)nc32)c(C)c1
Reply text: inactive

Inquiry: Which outcome was assigned to CNC(=O)N1c2ccccc2C=Cc2ccccc21 in this test?
Reply text: inactive

Inquiry: Returns: the outcome recorded for CC1C(C)N(C(=O)CCl)c2ccccc2N1C(=O)CCl (configuration not stated) in this assay.
Reply text: active

Inquiry: I would be grateful if you could indicate the recorded call for COc1ccccc1N(CC(=O)Nc1ccc(C)cc1Cl)S(=O)(=O)c1cccs1 .
Reply text: inactive

Inquiry: // outcome(item) with item = CSc1ncc(Sc2ccccc2)c(C(=O)O)n1
Reply text: inactive

Inquiry: Recorded call for C[C@H](CO)N1C[C@H](C)[C@H](CN(C)CC2CC2)Oc2ccc(NC(=O)CCN3CCOCC3)cc2C1=O ?
Reply text: inactive

Inquiry: Answer briefly: the call reported for CCNC(=O)N1c2ccccc2Sc2ccccc21 in this assay.
Reply text: inactive

Inquiry: State the result this test recorded for COC(=O)Cc1ccc(OCC(=O)NC2CCCC2)cc1 .
Reply text: inactive

Inquiry: I would be grateful if you could indicate the recorded call for CSc1nc(C)cc(SC(C(C)=O)C(=O)Nc2ccccc2)n1 (configuration not stated) .
Reply text: inactive
